Target: influenza PA endonuclease (Influenza A virus)
Experiment: biochemical
Set-up: species or system Pandemic H1N1 influenza A
pIC50: −log10 of the molar value.
Entry flag: true if pIC50 reaches 7; false if it does not.

[
  {
    "molecule_smiles": "O=C(O)c1ccc(O)c(O)c1",
    "test_system": "influenza PA endonuclease (Influenza A virus)",
    "group": "false"
  },
  {
    "molecule_smiles": "Cc1cccc(-c2cc(=O)c(O)c(C(=O)O)[nH]2)c1",
    "test_system": "influenza PA endonuclease (Influenza A virus)",
    "group": "true"
  },
  {
    "molecule_smiles": "CNC(=O)c1[nH]ccc(=O)c1O",
    "test_system": "influenza PA endonuclease (Influenza A virus)",
    "group": "false"
  },
  {
    "molecule_smiles": "CC(C)c1cccc(=O)c(O)c1",
    "test_system": "influenza PA endonuclease (Influenza A virus)",
    "group": "false"
  },
  {
    "molecule_smiles": "O=c1cc(CNCc2ccccc2)occ1O",
    "test_system": "influenza PA endonuclease (Influenza A virus)",
    "group": "false"
  },
  {
    "molecule_smiles": "Cc1c(O)c(=O)ccn1-c1ccccc1",
    "test_system": "influenza PA endonuclease (Influenza A virus)",
    "group": "false"
  }
]

Could you please find out whether `CCOC(=O)c1c(C)n(-c2ccc(Oc3ccccc3)cc2)cc(O)c1=O` has pIC50 that meets 7 or exceeds it? false

// inclusive: pIC50 at least 7? input: `O=C(O)c1ccc(-c2cc(=O)c(O)c(C(=O)O)[nH]2)cc1` true

Does the reported pIC50 for `Cc1cc(O)c(=O)c(O)cc1-c1ccccc1` fall at or above the 7 mark? true
